Tested on: CCRIS mutagenicity, Ames/micronucleus/aberration tests
Test: CCRIS mutagenicity studies
Conditions: Test System: AMES SALMONELLA TYPHIMURIUM; Strain/Indicator: TA98; Metabolic Activation: NONE; Method: STANDARD PLATE
The source made the active and inactive calls. How the calls were made is not given here.
quantity.name: mutagenic call

>>> result("Cc1ccc(N)c(O)c1")
"inactive; negative"
>>> result("C=CC(=O)OCCCCC")
"inactive; negative"
>>> result("O=C(Nc1cc(Cl)cc(Cl)c1O)c1c(O)c(Cl)cc(Cl)c1Cl")
"inactive; negative"
>>> result("CC(=O)Nc1ccc(O)cc1")
"inactive; negative"
>>> result("O=[N+]([O-])c1cccc(NS(=O)(=O)c2cccc3cccnc23)c1")
"inactive; negative"
>>> result("O=C(Nc1ccccc1Br)c1csc([N+](=O)[O-])c1")
"active; positive"
>>> result("N#CCCN")
"inactive; negative"
>>> result("COP(=O)(NC(C)=O)SC (centres undefined)")
"inactive; negative"
>>> result("CC(=O)N(O)c1ccc(Sc2ccccc2)cc1")
"active; positive"
